system: RPMI-8226 leukemia; assay: NCI-60 one-dose screen, 48 h; details: 10 µM unless noted
About 83,000 compounds went through this panel and 20% of them were active in at least one assay; those are over-represented in the sample as a whole. Activity calls are given as the source filed them. How the source made its calls: active means growth percent below 10; inactive means the rest.
Assign a class; possible classes are active, inactive

Some solved cases for reference:
COc1cc(-c2nc(N3CCN(C)CC3)c3ccccc3n2)cc(OC)c1OC	inactive
Cc1c(Cl)cc(-n2c(=O)c3ccccc3c3ccccc3c2=O)cc1Cl	inactive
CCOC(=O)c1csc(NC(=O)COc2cccc(/C=C3\Oc4cc(OC)ccc4C3=O)c2)n1	inactive
COc1ccc(-c2nc3c(c(=O)n2C(C)=O)C(c2ccc(Cl)cc2)c2sc4c(Cl)cccc4c2O3)cc1 (stereo not given)	active

// query Dear colleague, could you share the recorded outcome for COC(=O)[C@]12CC[C@@H](C)[C@H](C)[C@@H]1C1=CC[C@@H]3[C@@]4(C)C(C=O)=C[C@@](C)(COC(=O)/C=C/c5ccccc5)[C@@H]4[C@H](O)C[C@@]3(C)[C@]1(C)CC2 when you have a moment?
// result active
